Give measured CC50 at 168 h for each item. Keep answers brief.
Test: Cytotoxicity against human HSB2 cells after 7 days by Cell-Titer Glo assay
Assay type: cell-based, CCRF-HSB-2

// recorded CC50 at 168 h for `CCCSc1nc(N)nc2c1ncn2/C=C1/CC1(CO)CO` : 98 µM

// recorded CC50 at 168 h for `Nc1nc(NC2CCCCC2)c2ncn(/C=C3/CC3(CO)CO)c2n1` : > 20 µM

// recorded CC50 at 168 h for `CCCNc1nc(N)nc2c1ncn2/C=C1/CC1(CO)CO` : > 20 µM

// recorded CC50 at 168 h for `Nc1nc2c(ncn2/C=C2/CC2(CO)CO)c(=O)[nH]1` : > 20 µM

// recorded CC50 at 168 h for `CC(C)CSc1nc(N)nc2c1ncn2/C=C1/CC1(CO)CO` : 60 µM

// recorded CC50 at 168 h for `Nc1nc(N2CCCC2)c2ncn(/C=C3/CC3(CO)CO)c2n1` : > 20 µM

// recorded CC50 at 168 h for `COc1nc(N)nc2nc[nH]c12` : > 20 µM

// recorded CC50 at 168 h for `Nc1nc(N2CCOCC2)c2ncn(/C=C3/CC3(CO)CO)c2n1` : > 20 µM

// recorded CC50 at 168 h for `Nc1nc(SCc2ccccc2)c2ncn(/C=C3/CC3(CO)CO)c2n1` : > 100 µM

// recorded CC50 at 168 h for `Nc1nc(OCc2ccccc2)c2ncn(/C=C3/CC3(CO)CO)c2n1` : > 20 µM

// recorded CC50 at 168 h for `CC(C)CNc1nc(N)nc2c1ncn2/C=C1/CC1(CO)CO` : > 20 µM

---

Assay: Cytotoxicity against human HSB2 cells after 7 days by Cell-Titer Glo assay
Format: cell-based, CCRF-HSB-2
Give measured CC50 at 168 h for each item. Keep answers brief.

// recorded CC50 at 168 h for `CN(C)c1nc(N)nc2c1ncn2/C=C1/CC1(CO)CO` : > 20 µM

// recorded CC50 at 168 h for `CC(C)Sc1nc(N)nc2c1ncn2/C=C1/CC1(CO)CO` : 94 µM

// recorded CC50 at 168 h for `Nc1nc(OCC(F)(F)F)c2ncn(/C=C3/CC3(CO)CO)c2n1` : > 20 µM

// recorded CC50 at 168 h for `CSc1nc(N)nc2c1ncn2/C=C1/CC1(CO)CO` : > 100 µM

// recorded CC50 at 168 h for `CCCCCOc1nc(N)nc2c1ncn2/C=C1/CC1(CO)CO` : > 20 µM

// recorded CC50 at 168 h for `CCCCNc1nc(N)nc2c1ncn2/C=C1/CC1(CO)CO` : > 20 µM

// recorded CC50 at 168 h for `CC(C)Nc1nc(N)nc2c1ncn2/C=C1/CC1(CO)CO` : > 20 µM

---

Assay: Cytotoxicity against human Akata cells after 7 days by Cell-Titer Glo assay
Type: cell-based
OBSERVATION TYPE: CC50 at 168 h

// recorded CC50 at 168 h for `CCCCOc1nc(N)nc2c1ncn2/C=C1/CC1(CO)CO` : > 20 µM

// recorded CC50 at 168 h for `CN(C)c1nc(N)nc2c1ncn2/C=C1/CC1(CO)CO` : > 24 µM

// recorded CC50 at 168 h for `Nc1nc(N2CCOCC2)c2ncn(/C=C3/CC3(CO)CO)c2n1` : > 24 µM

// recorded CC50 at 168 h for `Nc1nc(NC2CCCC2)c2ncn(/C=C3/CC3(CO)CO)c2n1` : > 20 µM

// recorded CC50 at 168 h for `CCCCCOc1nc(N)nc2c1ncn2/C=C1/CC1(CO)CO` : > 20 µM

// recorded CC50 at 168 h for `COCCOc1nc(N)nc2c1ncn2/C=C1/CC1(CO)CO` : > 20 µM

// recorded CC50 at 168 h for Nc1nc(N)c2nc[nH]c2n1 [2,6-DIAMINOPURINE] : > 20 µM

// recorded CC50 at 168 h for `CCCCCCSc1nc(N)nc2c1ncn2/C=C1/CC1(CO)CO` : > 20 µM

// recorded CC50 at 168 h for `CCCCCCOc1nc(N)nc2c1ncn2/C=C1/CC1(CO)CO` : > 20 µM

// recorded CC50 at 168 h for `CC(C)Nc1nc(N)nc2c1ncn2/C=C1/CC1(CO)CO` : > 24 µM

// recorded CC50 at 168 h for Nc1nc2c(ncn2/C=C2/CC2(CO)CO)c(=O)[nH]1 [FILOCICLOVIR] : > 20 µM

// recorded CC50 at 168 h for `C=CCOc1nc(N)nc2c1ncn2/C=C1/CC1(CO)CO` : > 20 µM

// recorded CC50 at 168 h for `CCOc1nc(N)nc2c1ncn2/C=C1/CC1(CO)CO` : > 20 µM

// recorded CC50 at 168 h for `Nc1nc(SCc2ccccc2)c2ncn(/C=C3/CC3(CO)CO)c2n1` : > 20 µM

// recorded CC50 at 168 h for `Nc1nc(NC2CC2)c2ncn(/C=C3/CC3(CO)CO)c2n1` : > 20 µM

// recorded CC50 at 168 h for `Nc1nc(OCc2ccccc2)c2ncn(/C=C3/CC3(CO)CO)c2n1` : > 20 µM

// recorded CC50 at 168 h for `Nc1nc(N2CCCC2)c2ncn(/C=C3/CC3(CO)CO)c2n1` : > 24 µM

// recorded CC50 at 168 h for `Nc1nc(NCc2ccccc2)c2ncn(/C=C3/CC3(CO)CO)c2n1` : > 24 µM

// recorded CC50 at 168 h for `CCCCCCCCOc1nc(N)nc2c1ncn2/C=C1/CC1(CO)CO` : > 20 µM

// recorded CC50 at 168 h for `CC(C)CNc1nc(N)nc2c1ncn2/C=C1/CC1(CO)CO` : > 24 µM

// recorded CC50 at 168 h for `CCCSc1nc(N)nc2c1ncn2/C=C1/CC1(CO)CO` : > 20 µM

// recorded CC50 at 168 h for `CCCCNc1nc(N)nc2c1ncn2/C=C1/CC1(CO)CO` : > 24 µM

// recorded CC50 at 168 h for `CCCCSc1nc(N)nc2c1ncn2/C=C1/CC1(CO)CO` : > 20 µM

// recorded CC50 at 168 h for `COc1nc(N)nc2nc[nH]c12` : > 20 µM

// recorded CC50 at 168 h for `CCCOc1nc(N)nc2c1ncn2/C=C1/CC1(CO)CO` : > 20 µM
